pKi: recorded values
molecular target: MCH receptor (Homo sapiens, UniProt Q99705); construct: expressed in transfected cells; host or cells: CHO cells; assay: MCH Receptor Binding Assay; settings: Table 2; membranes from CHO cells expressing the MCH receptor, [125I]-MCH, SPA; read-out: Ki (MCH)
Sequence (Q99705 whole entry): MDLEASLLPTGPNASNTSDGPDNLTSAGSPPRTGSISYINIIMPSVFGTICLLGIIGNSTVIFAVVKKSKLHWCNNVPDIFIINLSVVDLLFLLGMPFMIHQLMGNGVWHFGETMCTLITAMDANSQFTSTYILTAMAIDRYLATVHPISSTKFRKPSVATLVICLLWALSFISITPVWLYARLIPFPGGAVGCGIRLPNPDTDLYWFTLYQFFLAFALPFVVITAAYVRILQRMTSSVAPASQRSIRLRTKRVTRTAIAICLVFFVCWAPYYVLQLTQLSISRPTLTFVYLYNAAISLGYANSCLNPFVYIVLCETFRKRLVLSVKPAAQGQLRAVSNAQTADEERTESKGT
Notebook: values listed as pKi are -log10 of the concentration (mol/L).

Completed entries (count: 6):
> print(dat)
                                   molecule                              assay.system  assay.result
1  CCCNCCC(=O)N(CC(=O)Nc1cc(Cl)cc(Cl)c1)[C@@H](C)c1ccc(-c2cccc(C#N)c2)cc1  MCH receptor (Homo sapiens, UniProt Q99705)          7.66
2  C[C@@H](c1ccc(-c2cccc(C#N)c2)cc1)N(CC(=O)Nc1cc(Cl)cc(Cl)c1)C(=O)CCN(C)C  MCH receptor (Homo sapiens, UniProt Q99705)          7.35
3  C[C@H](c1ccc(-c2cccc(C#N)c2)cc1)N(CC(=O)Nc1cc(Cl)cc(Cl)c1)C(=O)CCN1CC[C@@H](O)C1  MCH receptor (Homo sapiens, UniProt Q99705)          7.64
4  CNCCC(=O)N(CC(=O)Nc1cc(Cl)cc(Cl)c1)[C@@H](C)c1ccc(-c2cccc(C#N)c2)cc1  MCH receptor (Homo sapiens, UniProt Q99705)          7.11
5  CC(c1ccc(-c2cccc(C#N)c2)cc1)N(CC(=O)Nc1cc(Cl)cc(Cl)c1)C(=O)CN1CC[C@H](O)C1 (stereo partly shown)  MCH receptor (Homo sapiens, UniProt Q99705)          7.80
6  C[C@@H](c1ccc(-c2cccc(C#N)c2)cc1)N(CC(=O)Nc1cc(Cl)cc(Cl)c1)C(=O)CCN1CC[C@@H](O)C1  MCH receptor (Homo sapiens, UniProt Q99705)          7.74

// below: pKi requested for another molecule
Exercise: Supply recorded pKi for "C[C@H](c1ccc(-c2cccc(C#N)c2)cc1)N(CC(=O)Nc1cc(Cl)cc(Cl)c1)C(=O)CN1CC[C@@H](O)C1" here.
Solution: 7.51

---

Molecular target: MCH receptor (Homo sapiens)
Construct: expressed in transfected cells; host or cells: CHO cells
Assay: MCH Receptor Binding Assay
Details: Table 1; membranes from CHO cells expressing the MCH receptor, [125I]-MCH, SPA; read-out: MCH Ki (nm)
Method: MCH Receptor Binding Assay: Membranes from CHO cells expressing the MCH receptor were prepared by lysing cells with 5 mM HEPES for 15 min at 4C. Cell lysates were centrifuged ([…], 15 min) and the pellet was re-suspended in 5 mM HEPES. […] Nonspecific binding was determined by including 1 μM MCH in the binding reaction. […] Plates were then analyzed in a TOPCOUNT microplate scintillation counter (Packard). Data was analyzed and Ki values were determined using GraphPad Prim.
PROPERTY: Ki (nM)
Write the number in nM without appending the unit.

Completed entries (count: 3):
> print(dat)
                                   compound  assay.result
1  N#Cc1cccc(-c2ccc(CCN(CC(=O)Nc3cc(Cl)cc(Cl)c3)C(=O)CCN3CCCC3)cc2)c1            10
2  N#Cc1cccc(-c2ccc(CCN(CC(=O)Nc3ccc(F)c(Cl)c3)C(=O)CN3CCCC3)cc2)c1           5.3
3  N#Cc1cccc(-c2ccc(CCN(CC(=O)Nc3ccc(Cl)c(C(F)(F)F)c3)C(=O)CN3CCCC3)cc2)c1            25

Exercise: Supply recorded Ki for "CN(C)CC(=O)N(CCc1ccc(-c2cccc(C#N)c2)cc1)CC(=O)Nc1cc(Cl)cc(Cl)c1" here.
Solution: 90

Exercise: Supply recorded Ki for "N#Cc1cccc(-c2ccc(CCN(CC(=O)Nc3cc(Cl)cc(Cl)c3)C(=O)CCN3CC[C@@H](O)C3)cc2)c1" here.
Solution: 12

Exercise: Supply recorded Ki for "N#Cc1cccc(-c2ccc(CN(CC(=O)Nc3cc(Cl)cc(Cl)c3)C(=O)CN3CCCC3)cc2)c1" here.
Solution: 35

Exercise: Supply recorded Ki for "N#Cc1cccc(-c2ccc(CCN(CC(=O)Nc3cc(Cl)cc(Cl)c3)C(=O)CCN3CCC3)cc2)c1" here.
Solution: 32

Exercise: Supply recorded Ki for CC(C(=O)Nc1cc(Cl)cc(Cl)c1)N(CCc1ccc(-c2cccc(C#N)c2)cc1)C(=O)CN1CCCCC1 (stereo not drawn) here.
Solution: 9

Exercise: Supply recorded Ki for "CN1CCN(CC(=O)N(CCc2ccc(-c3cccc(C#N)c3)cc2)CC(=O)Nc2cc(Cl)cc(Cl)c2)CC1" here.
Solution: 63

Exercise: Supply recorded Ki for "CN(C)CC(=O)N(CC(=O)Nc1cc(Cl)cc(Cl)c1)c1ccc(-c2cccc(C#N)c2)cc1" here.
Solution: 52

Exercise: Supply recorded Ki for "N#Cc1cccc(-c2ccc(CCN(CC(=O)Nc3cc(Cl)cc(Cl)c3)C(=O)CN3CCCCC3)cc2)c1" here.
Solution: 9.3

Exercise: Supply recorded Ki for "CC(=O)N[C@@H]1CCN(CC(=O)N(CCc2ccc(-c3cccc(C#N)c3)cc2)CC(=O)Nc2cc(Cl)cc(Cl)c2)C1" here.
Solution: 82

Exercise: Supply recorded Ki for "CCCNCCC(=O)N(CCc1ccc(-c2cccc(C#N)c2)cc1)CC(=O)Nc1cc(Cl)cc(Cl)c1" here.
Solution: 24

Exercise: Supply recorded Ki for "CN(C)CC(=O)N(CC(=O)Nc1cc(Cl)cc(Cl)c1)Cc1ccc(-c2cccc(C#N)c2)cc1" here.
Solution: 36

Exercise: Supply recorded Ki for "N#Cc1cccc(-c2ccc(CCN(CC(=O)Nc3cc(Cl)cc(Cl)c3)C(=O)CCN3CC[C@H](O)C3)cc2)c1" here.
Solution: 7.2
